# target-or-system: hS1P1 receptor (Homo sapiens, UniProt P21453)
# Construct: host or cells: U2OS
# Sequence (P21453 whole entry): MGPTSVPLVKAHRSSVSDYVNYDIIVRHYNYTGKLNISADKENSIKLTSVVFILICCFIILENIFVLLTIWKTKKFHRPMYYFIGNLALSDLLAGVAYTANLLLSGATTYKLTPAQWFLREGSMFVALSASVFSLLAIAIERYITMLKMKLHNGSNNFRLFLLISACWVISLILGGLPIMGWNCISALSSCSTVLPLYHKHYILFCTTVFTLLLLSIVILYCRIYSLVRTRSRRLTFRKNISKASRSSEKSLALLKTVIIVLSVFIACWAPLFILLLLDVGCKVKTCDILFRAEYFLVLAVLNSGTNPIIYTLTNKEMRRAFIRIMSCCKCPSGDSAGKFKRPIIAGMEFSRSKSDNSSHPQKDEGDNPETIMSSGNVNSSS
# measurement-protocol: hS1P1 receptor internalization assay (cell imaging-based, hS1P1-eGFP U2OS cells)
# recorded-conditions: 1 h; U2OS cell line expressing hS1P1-eGFP; efficacy (Max); compounds incubated at 37° C. for one hour; read-out: hS1P1 Receptor Internalization (biolimaging) Max (%)
Structures can show the parent of a compound that is named as a salt.
metric: Emax (%)

[[record]]
compound = "CC(=O)NCCc1ccc(-c2nc3ccc(C4(c5ccccc5)CC4)nc3s2)c(F)c1"
number = 155

[[record]]
compound = "c1ccc(C2(c3ccc4nc(-c5ccc6c(c5)CCNC6)sc4n3)CC2)cc1"
number = 148

[[record]]
compound = "C[C@H](CC(=O)O)NCc1ccc(-c2nc3ccc(C4(c5ccccc5)CC4)nc3s2)c(F)c1 [Example 91, hydrochloride]"
number = 131

[[record]]
compound = "O=C(O)C1CN(Cc2ccc(-c3nc4ccc(C5(c6ccccc6)CC5)nc4s3)c(F)c2)C1"
number = 98


A: O=C(O)C[C@H](O)C(=O)Nc1ccc(-c2nc3ccc(C4(c5ccccc5)CC4)nc3s2)c(F)c1
B: O=C(O)CCc1ccc(-c2nc3ccc(C4(c5ccccc5)CC4)nc3s2)c(F)c1
Select the item whose Emax value is smaller, choosing between A and B . Lab note: record the label of whichever item you select.
B
(B: 81%, A: 133%)

Where do the numbers come from? From patent US7842685B2.
